# method_notes: Half life of the compounds in mice
# Format: in vivo
# experimental_setup: mouse, in vivo, read-out: t½ (min) in mice
measurement_label: half-life (min)
Response body: numeric value in min, unit text excluded.

Here's what some known entries look like.
> print(dat)
                            smiles.code  measurement.label  data.value
1  Fc1nccc(NCc2ccc(CNc3ccnc(F)n3)cc2)n1          half-life          30
2     Fc1cccc(NCc2ccc(CNc3ncccn3)cc2)n1          half-life          15

Fill blank: measured half-life of the compound FCc1ccc(CNc2ncccn2)cc1 is ____.
11

Could you tell me which half-life is on file for Fc1ccc(NCc2ccc(CNc3ncccn3)cc2)nc1 ?
16.5

###

In this section, each of the compounds is paired with its reported half-life.
# method_notes: Half life of the compounds in mice
# Type: in vivo
# experimental_setup: mouse, in vivo, read-out: t½ (min) in mice
# Description: A pharmacokinetic study of a novel anti-HIF-1α small molecule was performed. A stably integrated hypoxia-reporter system of glioma cells transfected with the hypoxia-reporting plasmid (described above) was utilized. […] HPLC methodology was developed for quantitatively detecting KCN-1 in plasma and other biological samples. […] Plasma samples were collected at given time Points (0.25, 0.5, 1, 2, 4 and 8 h) and KCN-1 levels were quantified by HPLC. […]

> print(dat)
                                smiles.code  data.value
1        O=[N+]([O-])c1ccccc1NCc1ccc(CO)cc1     < 5 min
2  Cc1c(C)c(CNc2ccccc2)c(C)c(C)c1CNc1ccccc1     < 5 min

Note: attention shifts to another entry.
Looking for the measured half-life of Clc1nc(Cl)nc(NCc2ccc(CNc3nc(Cl)nc(Cl)n3)cc2)n1 , can you help?
< 5 min
